These entries and their values trace back to paper PMC9090415.

system: P. falciparum apicoplast DNA polymerase (Pf-apPOL) (Plasmodium falciparum, UniProt Q8ILY1)
Sequence (Q8ILY1 entry or part of it): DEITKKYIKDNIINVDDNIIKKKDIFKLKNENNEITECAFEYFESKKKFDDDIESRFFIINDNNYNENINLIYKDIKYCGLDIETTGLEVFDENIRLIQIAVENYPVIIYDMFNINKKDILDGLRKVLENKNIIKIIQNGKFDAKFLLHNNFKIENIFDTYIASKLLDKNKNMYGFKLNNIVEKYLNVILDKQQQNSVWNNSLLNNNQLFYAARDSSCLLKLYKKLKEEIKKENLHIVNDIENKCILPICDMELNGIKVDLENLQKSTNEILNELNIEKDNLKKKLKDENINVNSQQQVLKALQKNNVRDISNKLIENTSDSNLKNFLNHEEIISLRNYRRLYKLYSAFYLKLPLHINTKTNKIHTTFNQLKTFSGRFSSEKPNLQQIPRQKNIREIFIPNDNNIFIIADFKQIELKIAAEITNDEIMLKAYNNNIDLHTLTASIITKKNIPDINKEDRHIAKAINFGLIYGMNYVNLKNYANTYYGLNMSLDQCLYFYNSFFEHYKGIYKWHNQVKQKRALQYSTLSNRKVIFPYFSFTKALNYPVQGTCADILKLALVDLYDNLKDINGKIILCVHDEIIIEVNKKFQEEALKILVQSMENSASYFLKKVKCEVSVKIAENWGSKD
assay_details: Fluorescence-based high-throughput DNA polymerase assay (molecular beacon), primary screen and dose-response
Type: biochemical
reported_conditions: DRC-1; read at 180'; concentration 5
reported_metric: % inhibition apPOL 180' 5 (%)
Your answer should be a plain number; it is taken to be in %.

Below: 3 molecules and their reported % inhibition apPOL 180' 5.
{"molecule": "O=C(c1ccccc1)N1CCc2c(nc3cc(-c4ccccc4)[nH]n3c2=O)C1", "system": "P. falciparum apicoplast DNA polymerase (Pf-apPOL) (Plasmodium falciparum, UniProt Q8ILY1)", "% inhibition apPOL 180' 5, %": -2.049}
{"molecule": "C#CC(C=CC)OC(=O)c1ccccc1C(=O)O (centres unmarked)", "system": "P. falciparum apicoplast DNA polymerase (Pf-apPOL) (Plasmodium falciparum, UniProt Q8ILY1)", "% inhibition apPOL 180' 5, %": -3.151}
{"molecule": "O=C(CCc1csc(NC(=O)Nc2ccccc2)n1)Nc1nc2ccccc2s1", "system": "P. falciparum apicoplast DNA polymerase (Pf-apPOL) (Plasmodium falciparum, UniProt Q8ILY1)", "% inhibition apPOL 180' 5, %": -6.2}

Entry COc1ccc(/C=C/c2cc(C(=O)O)c3ccccc3n2)cc1 under P. falciparum apicoplast DNA polymerase (Pf-apPOL) (Plasmodium falciparum, UniProt Q8ILY1) had % inhibition apPOL 180' 5 of 35.945

Entry COc1ccc(C2CC(c3ccc(Cl)cc3Cl)Nc3nc(N)nn32)cc1OC (centres unmarked) under P. falciparum apicoplast DNA polymerase (Pf-apPOL) (Plasmodium falciparum, UniProt Q8ILY1) had % inhibition apPOL 180' 5 of 25

Entry CC(C)CC(C(=O)O)N1C(=O)C2C3C=CC(C2C1=O)C1C(=O)N(C(CC(C)C)C(=O)O)C(=O)C31 (centres unmarked) under P. falciparum apicoplast DNA polymerase (Pf-apPOL) (Plasmodium falciparum, UniProt Q8ILY1) had % inhibition apPOL 180' 5 of 8.787

Entry CC(=O)OCC1=C(C(=O)[O-])N2C(=O)[C@@H](NC(=O)Cc3cccs3)[C@H]2SC1.[Na+] under P. falciparum apicoplast DNA polymerase (Pf-apPOL) (Plasmodium falciparum, UniProt Q8ILY1) had % inhibition apPOL 180' 5 of -9.547

Entry Nc1cc(Oc2ccc(O)c(N)c2)ccc1O under P. falciparum apicoplast DNA polymerase (Pf-apPOL) (Plasmodium falciparum, UniProt Q8ILY1) had % inhibition apPOL 180' 5 of 7.101

====

system: P. falciparum apicoplast DNA polymerase (Pf-apPOL) (Plasmodium falciparum, UniProt Q8ILY1)
assay_details: Fluorescence-based high-throughput DNA polymerase assay (molecular beacon), primary screen and dose-response
Type: biochemical
reported_conditions: DRC-1; 10'; concentration 20
reported_metric: % inhibition Apo pol 10' (%)
Your answer should be a plain number; it is taken to be in %.

{"compound": "O=C(c1c[nH]c2ncccc12)N1CCCCCC1 [Molecule 51, O=C(c1c[nH]c2c1cccn2)N1CCCCCC1]", "system": "P. falciparum apicoplast DNA polymerase (Pf-apPOL) (Plasmodium falciparum, UniProt Q8ILY1)", "value_unit": "%", "reading": 44.6815}

Entry COc1ccc(-c2cc(=O)c3cc(O)ccc3o2)cc1OC under P. falciparum apicoplast DNA polymerase (Pf-apPOL) (Plasmodium falciparum, UniProt Q8ILY1) had % inhibition Apo pol 10' of 34.6118

Entry COc1cccc(C(=O)N2CCc3c(nc4cc(-c5ccccc5)[nH]n4c3=O)C2)c1OC under P. falciparum apicoplast DNA polymerase (Pf-apPOL) (Plasmodium falciparum, UniProt Q8ILY1) had % inhibition Apo pol 10' of 81

====

Listed here: items and their measured % inhibition apPOL 180'.
system: P. falciparum apicoplast DNA polymerase (Pf-apPOL) (Plasmodium falciparum, UniProt Q8ILY1)
assay_details: Fluorescence-based high-throughput DNA polymerase assay (molecular beacon), primary screen and dose-response
Format: biochemical
reported_conditions: DRC-1; 180'; concentration 5
Your answer should be a plain number; it is taken to be in %.

Below: 4 compounds and their reported % inhibition apPOL 180'.
{"compound": "COc1cc(Cl)c(C)cc1NC(=O)Cn1ccc2c(=O)[nH]ccc21 [Molecule 33]", "value_unit": "%", "% inhibition apPOL 180'": -2.934}
{"compound": "N#CC(=NNc1cc(C(F)(F)F)cc(C(F)(F)F)c1)C(=O)c1ccco1 [KU0264276]", "value_unit": "%", "% inhibition apPOL 180'": 8.8259}
{"compound": "Cc1ccc(C)c(CSc2nc(C3CCCCC3)c(C#N)c(=O)[nH]2)c1 [Molecule 6]", "value_unit": "%", "% inhibition apPOL 180'": 17.3135}
{"compound": "O=[N+]([O-])c1cc2c(cc1CN1CCCCCC1)OCO2 [KU0004987]", "value_unit": "%", "% inhibition apPOL 180'": -7.266}

Just so you know, measured % inhibition apPOL 180' for COc1ccc(CNC(=O)Cn2nc3c(c2NC(=O)Cc2cccs2)CSC3)cc1 [Molecule 55] came out at -8.12

Just so you know, measured % inhibition apPOL 180' for Cn1nc(C(=O)N2CCc3c(nc4cc(-c5ccccc5)[nH]n4c3=O)C2)c2ccccc21 [Molecule 18] came out at 6

Just so you know, measured % inhibition apPOL 180' for Cc1ccc(C)n1-c1ccc(C(=O)NNC(=O)c2ccc3nccnc3c2)cc1 [Molecule 53] came out at -7.03

Just so you know, measured % inhibition apPOL 180' for O=c1cc(-c2ccccc2Cl)oc2c(NS(=O)(=O)c3cc(Cl)cc(Cl)c3O)ccc(O)c12 [KU0104277] came out at -5.423

Just so you know, measured % inhibition apPOL 180' for Oc1ccc(N=Nc2ccccc2)c(O)c1 [Molecule 80, Oc1ccc(c(c1)O)N=Nc1ccccc1] came out at -7.381

Just so you know, measured % inhibition apPOL 180' for CCCCCCCCCCCCCCCCCC(=O)CCN(C)C [KU0271928] came out at 0.02519

Just so you know, measured % inhibition apPOL 180' for O=C1CCCC2=C1C(c1ccccn1)C1=C(CCCC1=O)O2 [KU0194228] came out at 16.0813

Just so you know, measured % inhibition apPOL 180' for COc1cccc(Oc2c(C(F)(F)F)oc3cc(OC(=O)N(C)C)ccc3c2=O)c1 [Molecule 52] came out at 28.9407

Just so you know, measured % inhibition apPOL 180' for O=C(NCC1CCN(C2CCCC2)CC1)C(=O)NC1CCCC1 [KU0199596] came out at 16.0151

====

system: P. falciparum apicoplast DNA polymerase (Pf-apPOL) (Plasmodium falciparum)
assay_details: Fluorescence-based high-throughput DNA polymerase assay (molecular beacon), primary screen and dose-response
Assay type: biochemical
reported_conditions: DRC-2; concentration 10; 180'
Text: The HT assay employs a molecular beacon, a stem-loop DNA template with a Cy3 dye and the Black Hole Quencher on the 3′ and 5′ ends of the DNA, respectively. Pf-apPOL concentration is based on a calculated absorptivity of ε280 = 56750 M^−1 cm^−1. […] To identify apPOL inhibitors we utilised our previously developed high-throughput DNA polymerase assay. […] The assay accurately recapitulates the kinetic behaviour of apPOL, as measured through more conventional low-throughput gel-based assays. […]
Decide using % inhibition apPOL 180': a value greater than or equal to 20% is fulfilled, a smaller one is not fulfilled.

Solved entries:
{"molecule": "Cc1ccc(C2=N/C(=C\\c3ccc(I)o3)C(=O)O2)cc1[N+](=O)[O-] [KU0073890]", "system": "P. falciparum apicoplast DNA polymerase (Pf-apPOL) (Plasmodium falciparum)", "discrete_label": "fulfilled"}
{"molecule": "O=C1c2ccccc2C(=O)c2c1oc1c3c(ccc21)OCN(C1CCCC1)C3 [KU0064306]", "system": "P. falciparum apicoplast DNA polymerase (Pf-apPOL) (Plasmodium falciparum)", "discrete_label": "fulfilled"}
{"molecule": "Cc1cc(C)nc(Nc2nc(CC(=O)Nc3nc(-c4ccco4)cs3)cs2)n1 [Molecule 92]", "system": "P. falciparum apicoplast DNA polymerase (Pf-apPOL) (Plasmodium falciparum)", "discrete_label": "fulfilled"}
{"molecule": "CCCN1COc2ccc3c(=O)c(-c4ccccc4)coc3c2C1 [KU0199556]", "system": "P. falciparum apicoplast DNA polymerase (Pf-apPOL) (Plasmodium falciparum)", "discrete_label": "not fulfilled"}
{"molecule": "COc1ccc(NC(=O)Cn2nc3c(cc2=O)CCC3)cc1Cl [Molecule 4, COc1ccc(cc1Cl)NC(=O)Cn1nc2CCCc2cc1=O]", "system": "P. falciparum apicoplast DNA polymerase (Pf-apPOL) (Plasmodium falciparum)", "discrete_label": "fulfilled"}
{"molecule": "O=C(Cn1ccc2c(=O)[nH]ccc21)Nc1ccccc1Cl [Molecule 19, O=C(Cn1ccc2c1cc[nH]c2=O)Nc1ccccc1Cl]", "system": "P. falciparum apicoplast DNA polymerase (Pf-apPOL) (Plasmodium falciparum)", "discrete_label": "fulfilled"}
{"molecule": "O=C(Cc1cccs1)N1CCN(c2nc(CN3CCOCC3)cs2)CC1 [Molecule 35]", "system": "P. falciparum apicoplast DNA polymerase (Pf-apPOL) (Plasmodium falciparum)", "discrete_label": "fulfilled"}
{"molecule": "Oc1cccnc1/N=C/c1cc(I)cc(I)c1O [KU0073720]", "system": "P. falciparum apicoplast DNA polymerase (Pf-apPOL) (Plasmodium falciparum)", "discrete_label": "fulfilled"}

Check this molecule for % inhibition apPOL 180' at or above 20%: CCc1ccccc1NC(=O)c1ccc(-c2ncccc2NC(C)=O)cc1 [KU0203112]
not fulfilled

Check this molecule for % inhibition apPOL 180' at or above 20%: Nc1ncnc(NC2CCCCC2)c1[N+](=O)[O-] [KU0193018]
not fulfilled

Check this molecule for % inhibition apPOL 180' at or above 20%: COc1ccc(C=C2Oc3c(ccc4c3CN(Cc3ccco3)CO4)C2=O)c(OC)c1 [KU0199404]
not fulfilled

Check this molecule for % inhibition apPOL 180' at or above 20%: COc1cc(/C=C2\C(=O)N(c3ccc(C(=O)O)cc3)N=C2C(F)(F)F)ccc1OCC(C)C [KU0069072]
not fulfilled

Check this molecule for % inhibition apPOL 180' at or above 20%: COc1ccc(-c2occ(C(=O)O)c2C(=O)O)cc1 [KU0021536]
fulfilled

Check this molecule for % inhibition apPOL 180' at or above 20%: CCOc1ccc2cc(C3=NN(C(=O)CCC(=O)O)C(c4ccc(C)cc4)C3)c(=O)[nH]c2c1 (centres unmarked) [KU0056200]
not fulfilled

Check this molecule for % inhibition apPOL 180' at or above 20%: CCCCCc1c2c(cc(O)c1C(=O)O)OC(=O)c1c(cc(OC)cc1C(=O)CCCC)O2 [Molecule 24]
fulfilled
